Values were extracted from PubChem BioAssay (NCI).

tested on: MALME-3M melanoma; assay: NCI-60 one-dose screen, 48 h (100 = growth as untreated, 0 = no growth, -100 = all killed); conditions: 10 µM unless noted
This is part of a sample that, as a whole, favours compounds with a hit. Of some 83,000 tested, about 20% had one in any assay.
# if value of growth reaches 90%, tag y; if it stays below, tag n

compound	labelValue
COc1ccc(OC)c(NC2=C(Cl)C(=O)C(C)=C(C)C2=O)c1	y
CC1OC(O[C@@H]2[C@H](O)C(CO)OC(O[C@H]3COC(O[C@H]4CC[C@]5(C)[C@H]6CC[C@]78OC[C@@]9(CCC(C)(C)C[C@H]97)[C@H](O)C[C@@]8(C)[C@]6(C)CC[C@H]5C4(C)C)[C@@H](OC4OC(CO)[C@@H](O)[C@@H](O)[C@@H]4O)[C@@H]3O)[C@H]2OC2OC[C@@H](O)[C@@H](O)[C@@H]2O)[C@@H](O)[C@@H](O)[C@H]1O (some centres not stated)	n
CCN1C(=O)N(CC)C2SC(N/N=C/c3ccccc3F)=NC21 (configuration not stated)	n
Cc1cccc(NC(c2cc3cccc4ccc5cccc2c5c43)c2nnnn2C(C)(C)C)c1C (configuration not stated)	y
COc1ccc(CCN2C(=O)/C(=C/c3nc(CO)cs3)SC2=S)cc1	n
O=C(/C=C1\C=CN(CCCCO)c2ccccc21)n1ccc2ccccc21	y
